# System: T-47D breast
# MEASUREMENT NOTES: NCI tumour cell line growth inhibition, 48 h; in the data active = GI50 below about 0.43 µM; inactive = the rest
Outcome codes: active, inactive

# MOLECULE, DISCRETE LABEL
rows = [
    ("CN(Cc1cnc2nc(N)nc(N)c2n1)c1c(Cl)cc(C(=O)NC(CCC(=O)O)C(=O)O)cc1Br (stereo not given)", "active"),
    ("COc1cc(C(=O)Nc2ccc(-c3nc4ccccc4[nH]3)cc2)cc(OC)c1OC", "inactive"),
    ("CC(C)(C)OC(=O)CC(S(=O)(=O)c1ccccc1)S(=O)(=O)c1ccccc1", "inactive"),
    ("COc1cc(C(=O)/C=C/c2c(C)n([O-])c3ccc(Cl)cc3[n+]2=O)cc(OC)c1OC", "inactive"),
    ("COc1ccc(C2CC(c3cccc(Nc4ccncc4)c3)=NN2c2ccccc2)cc1 (stereo not given)", "inactive"),
    ("COc1ccc(-c2nn(-c3cccc(Cl)c3)cc2-c2c(C#N)c(=O)n3[nH]c(-c4ccc(C)o4)nc3c2C#N)cc1", "inactive"),
    ("Nc1c([N+](=O)[O-])ncn1C1OC(CO)C(O)C1O (stereo not given)", "inactive"),
    ("C=C(c1ccc(C(=O)NCCCn2ccnc2)cc1)c1cc2c(cc1C)C(C)(C)CCC2(C)C", "active"),
    ("COc1ccccc1CNCCCN1C(=O)c2ccc3c4c(ccc(c24)C1=O)C(=O)N(CCCNCCCCN)C3=O", "inactive"),
    ("C#CCN(CCCOc1ccc(Cl)cc1Cl)CCCSC(=O)CCCCCN1/C(=C\\C=C2/CCCC(/C=C/C3=[N+](CCCCCC(=O)[O-])c4ccccc4C3(C)C)=C2Cl)C(C)(C)c2ccccc21", "inactive"),
]
